Assay: Characteristics of lipid nanoparticles (size, PDI, encapsulation efficiency)
Assay type: physicochemical
Settings: encapsulation efficiency; LNP with DSPC, cholesterol, PEG-1 and the compound
reported_property: % EE (%)

CCCC(CCC)CCOC(=O)CCCCCCCN(CCCCCCCC(=O)OCCC(CCC)CCC)CCCNc1c(NC)c(=O)c1=O : 84.2
CCCCCC(CCCCC)CCOC(=O)CCCCCCCN(CCCCCCCC(=O)OCCC(CCC)CCC)CCCNc1c(NC)c(=O)c1=O : 95.9
CCCCC(CCCC)CCOC(=O)CCCCCCCN(CCCCCCCC(=O)OCCC(CCCC)CCCC)CCCNc1c(NC)c(=O)c1=O : 88.9
CCCCC(CCCC)CCOC(=O)CCCCCCCN(CCCCCCCC(=O)OCCC(CCC)CCC)CCCNc1c(NC)c(=O)c1=O : 84.9
CCCCCC(CCCCC)CCOC(=O)CCCCCCCN(CCCCCCCC(=O)OCCC(CCCC)CCCC)CCCNc1c(NC)c(=O)c1=O : 98.3
CCCCC(CCCC)OC(=O)CCCCCCCN(CCCCCCCC(=O)OCCC(CCC)CCC)CCCNc1c(NC)c(=O)c1=O : 81.7
CCCCC(CCCC)CCOC(=O)CCCCCCCN(CCCCCCCC(=O)OC(CCCC)CCCC)CCCNc1c(NC)c(=O)c1=O : 83.0
CCCCCCC(CCCCCC)OC(=O)CCCCCCCN(CCCCCCCC(=O)OCCC(CCCC)CCCC)CCCNc1c(NC)c(=O)c1=O : 98.8
CCCCCCC(CCCCCC)OC(=O)CCCCCCCN(CCCCCCCC(=O)OCCC(CCC)CCC)CCCNc1c(NC)c(=O)c1=O : 89.2
CCCCCCCC(CCCCCCC)OC(=O)CCCCCCCN(CCCCCCCC(=O)OCCC(CCC)CCC)CCCNc1c(NC)c(=O)c1=O : 98.1
CCCCCC(CCCCC)OC(=O)CCCCCCCN(CCCCCCCC(=O)OCCC(CCC)CCC)CCCNc1c(NC)c(=O)c1=O : 88.6
CCCCCC(CCCCC)OC(=O)CCCCCCCN(CCCCCCCC(=O)OCCC(CCCC)CCCC)CCCNc1c(NC)c(=O)c1=O : 98.1
CCCCCC(CCCCC)CCOC(=O)CCCCCCCN(CCCCCCCC(=O)OC(CCCC)CCCC)CCCNc1c(NC)c(=O)c1=O : 90.1
CCCCCC(CCCCC)CCOC(=O)CCCCCCCN(CCCCCCCC(=O)OC(CCCCC)CCCCC)CCCNc1c(NC)c(=O)c1=O : 90.1

src = patent US12312293B2
